Below, IC50 values reported for Prostaglandin G/H synthase 1 (Ovis aries, UniProt P05979) across several publications.

Some solved cases for reference:
molecule | IC50
NS(=O)(=O)c1ccc(N2N=C(C(F)(F)F)CC2c2c[nH]c3c(Cl)cccc23)cc1 (single isomer, unassigned; enantiomer 2) | > 100 µM
COc1cc(-c2nc(Nc3ccc(C)cc3)c3c4c(sc3n2)CCCC4)cc(OC)c1OC | 8.5 µM
NS(=O)(=O)c1ccc(N2N=C(C(F)(F)F)CC2c2c[nH]c3ccc(C(=O)O)cc23)cc1 (centres undefined) | > 100 µM
NS(=O)(=O)c1ccc(N2N=C(C(F)(F)F)CC2c2c[nH]c3ccc(Cl)cc23)cc1 (centres undefined) | > 100 µM
Cc1ccc(-c2cc(CCl)nn2-c2ccc(S(N)(=O)=O)cc2)cc1 | > 100 µM

## Task Find the measured IC50: item NS(=O)(=O)c1ccc(N2C(=O)CC(C3CCCCC3=O)C2=O)cc1 (centres undefined) , target or system Prostaglandin G/H synthase 1 (Ovis aries, UniProt P05979).
## Result 43.4 µM

## Task API: value(readout= IC50, system= Prostaglandin G/H synthase 1 (Ovis aries, UniProt P05979), query= O=S(=O)(NCc1ccccc1)c1ccccc1-c1nnc(S)n1/N=C/c1ccc(Br)cc1 )
## Result 4.21 µM

## Task Param readout= IC50; system= Prostaglandin G/H synthase 1 (Ovis aries, UniProt P05979); entry= CC(=O)Oc1ccccc1-c1cc(C(F)(F)F)nn1-c1ccc(S(N)(=O)=O)cc1 ; returns value.
## Result > 100 µM

## Task State its IC50 on Prostaglandin G/H synthase 1 (Ovis aries, UniProt P05979): CC(=O)Oc1ccccc1C(=O)OCO/N=[N+](\[O-])N(C)C
Sequence (P05979 whole entry): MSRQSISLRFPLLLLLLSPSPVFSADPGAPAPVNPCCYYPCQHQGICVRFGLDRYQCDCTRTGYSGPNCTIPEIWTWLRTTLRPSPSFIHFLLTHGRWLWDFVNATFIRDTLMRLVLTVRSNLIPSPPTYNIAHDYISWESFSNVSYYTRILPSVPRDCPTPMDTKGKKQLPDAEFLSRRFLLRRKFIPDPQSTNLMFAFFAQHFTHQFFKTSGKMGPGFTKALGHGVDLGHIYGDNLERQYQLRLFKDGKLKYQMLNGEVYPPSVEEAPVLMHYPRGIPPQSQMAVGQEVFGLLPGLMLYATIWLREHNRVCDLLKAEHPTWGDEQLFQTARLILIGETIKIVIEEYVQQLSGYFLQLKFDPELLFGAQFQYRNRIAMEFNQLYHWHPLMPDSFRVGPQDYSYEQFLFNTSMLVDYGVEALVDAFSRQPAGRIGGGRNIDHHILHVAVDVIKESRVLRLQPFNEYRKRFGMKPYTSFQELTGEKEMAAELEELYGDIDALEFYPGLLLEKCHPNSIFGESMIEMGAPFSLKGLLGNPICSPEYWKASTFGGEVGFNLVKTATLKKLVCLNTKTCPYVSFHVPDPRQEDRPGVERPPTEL
## Result > 100 µM

====

The entries below pair compounds with IC50 values for Prostaglandin G/H synthase 1 (Ovis aries, UniProt P05979), as found in several publications.
Returns: string. Value is Condition met if measured IC50 is below 20 µM, and Condition not met if it is greater than or equal to it.

Use these answered entries as a reference point.
compound | discrete-label
CS(=O)(=O)c1ccc(-c2c(-c3ccccc3)cc(-c3ccccc3)oc2=O)cc1 | Condition not met
COc1ccc(-n2nc(C(F)(F)F)cc2-c2ccc3c(c2)oc(=O)n3C)cc1 | Condition met
CC(=O)NS(=O)(=O)c1cc(-c2ccn(C(F)F)c(=O)c2)ccc1C(=O)O | Condition not met

## Task Is IC50 of CS(=O)(=O)Nc1ccc([N+](=O)[O-])cc1Oc1cccc(I)c1 strictly below 20 µM?
## Result Condition not met

## Task Answer whether the compound CCCC(=O)N/N=C/c1coc2ccccc2c1=O has IC50 strictly less than 20 µM
## Result Condition not met

## Task Confirm or reject: IC50 of COC(=O)[C@@H](Cc1c[nH]c2ccccc12)NC(=O)CNC(=O)C(=O)c1cn(S(=O)(=O)c2ccc(C)cc2)c2ccccc12 lies strictly below 20 µM
## Result Condition not met

## Task Please check: IC50 for COc1ccc2c(c1)c(CC(=O)NCCc1ccccc1)cn2C(=O)c1ccc(Cl)cc1 , strictly under 20 µM or not?
## Result Condition not met

## Task Could you please tell me whether IC50 recorded for Cc1ccc(C(=O)n2cc(/C=N/c3c(C)n(C)n(-c4ccccc4)c3=O)c3ccccc32)cc1 is less than 20 µM?
## Result Condition met

## Task Bench note: check whether O=C1CCCCC1C1CC(=O)N(c2ccc(Br)cc2)C1=O (configuration not stated) shows IC50 below 20 µM
## Result Condition not met

## Task # check: IC50 < 20 µM for COc1ccc(C2CC(c3ccc(S(C)(=O)=O)cc3)=NN2c2ccc(C(=O)O)cc2)cc1 (configuration not stated)
## Result Condition met

## Task Hello, is IC50 of the following compound strictly smaller than 20 µM? CS(=O)(=O)c1ccc(-c2nc3c(n2-c2ccc(Cl)cc2)CCCC3)cc1
## Result Condition not met

## Task Would you kindly verify if IC50 of COC1(c2cccc(CS(=O)(=O)Nc3ccc([N+](=O)[O-])cc3OCc3ccccc3)c2)CCOCC1 is strictly less than 20 µM?
## Result Condition met

## Task Is the reported IC50 for CCOC(=O)c1ccc(OCc2ccccc2)c(NS(=O)(=O)Cc2cccc(C3(OC)CCOCC3)c2)c1 strictly below 20 µM?
## Result Condition met

## Task Would you kindly verify if IC50 of NS(=O)(=O)c1ccc(-n2nc(-c3ccccc3)nc2-c2ccccc2O)cc1 is strictly less than 20 µM?
## Result Condition not met

## Task Please state whether IC50 is below 20 µM for CC1CCC(=O)C(C2CC(=O)N(Cc3ccccc3)C2=O)C1 (configuration not stated)
## Result Condition not met
